System: Chenopodium album (CHEAL), common lambsquarters
assay-method-text: Postemergence herbicide evaluation, growth of Chenopodium album (CHEAL)
Assay type: in vivo
condition-parameters: Chenopodium album, post-emergence, 336 h, read-out: Ave. CHEAL
Would you kindly list pest or weed control at 560 g/ha for each of these compounds?
Reply numerically in %, unit not repeated.

Task: # input compound: O=C(COc1ccc(Cl)cc1Cl)OCCOC(=O)COc1ccc(Cl)cc1Cl ; wanted: its pest or weed control at 560 g/ha
Result: 95

Task: # input compound: N#C/C(=N\OC(=O)COc1ccc(Cl)cc1Cl)c1ccccc1 ; wanted: its pest or weed control at 560 g/ha
Result: 78

Task: # input compound: O=C(COc1ccc(Cl)cc1Cl)OCCCOC(=O)COc1ccc(Cl)cc1Cl ; wanted: its pest or weed control at 560 g/ha
Result: 90

Task: # input compound: O=C(COc1ccc(Cl)cc1Cl)n1cnc2ccccc21 ; wanted: its pest or weed control at 560 g/ha
Result: 85

Task: # input compound: O=C(COc1ccc(Cl)cc1Cl)OCCOCCOCCOCCOC(=O)COc1ccc(Cl)cc1Cl ; wanted: its pest or weed control at 560 g/ha
Result: 98

Task: # input compound: O=C(COc1ccc(Cl)cc1Cl)OCc1ccccc1 [Compound E4, Benzyl 2-(2,4-dichlorophenoxy)acetate] ; wanted: its pest or weed control at 560 g/ha
Result: 73

Task: # input compound: O=C(COc1ccc(Cl)cc1Cl)OCCOCCOCCOC(=O)COc1ccc(Cl)cc1Cl ; wanted: its pest or weed control at 560 g/ha
Result: 98

Task: # input compound: O=C(COc1ccc(Cl)cc1Cl)Nc1ccc(Cl)cc1 ; wanted: its pest or weed control at 560 g/ha
Result: 75

Task: # input compound: O=C(COc1ccc(Cl)cc1Cl)Oc1ccc(Cl)cc1 ; wanted: its pest or weed control at 560 g/ha
Result: 83

Task: # input compound: O=C(COc1ccc(Cl)cc1Cl)OCCCCCOC(=O)COc1ccc(Cl)cc1Cl ; wanted: its pest or weed control at 560 g/ha
Result: 97

Task: # input compound: O=C(COc1ccc(Cl)cc1Cl)OCOC(=O)c1ccccc1 ; wanted: its pest or weed control at 560 g/ha
Result: 93

* * *

Test system: glyphosate resistant Conyza canadensis (L.) (ERICA), horseweed
assay-method-text: Postemergence herbicide evaluation, growth of Conyza canadensis (ERICA)
Type: in vivo
condition-parameters: Erigeron canadensis, post-emergence, 336 h, 560 g ae/ha, 14 DAA, percent reduction in plant size relative to untreated control; read-out: Ave. ERICA
Would you kindly list pest or weed control at 560 g/ha for each of these compounds?
Reply numerically in %, unit not repeated.

Task: # input compound: N/C(=N\OC(=O)COc1ccc(Cl)cc1Cl)c1ccc(/C(N)=N/OC(=O)COc2ccc(Cl)cc2Cl)cc1 ; wanted: its pest or weed control at 560 g/ha
Result: 35

Task: # input compound: C/C(N)=N/OC(=O)COc1ccc(Cl)cc1Cl ; wanted: its pest or weed control at 560 g/ha
Result: 91

Task: # input compound: O=C(COc1ccc(Cl)cc1Cl)ON1CCCCC1 ; wanted: its pest or weed control at 560 g/ha
Result: 85

Task: # input compound: O=C(COc1ccc(Cl)cc1Cl)NOc1ccccc1 ; wanted: its pest or weed control at 560 g/ha
Result: 85

Task: # input compound: N/C(Cc1ccccc1)=N\OC(=O)COc1ccc(Cl)cc1Cl ; wanted: its pest or weed control at 560 g/ha
Result: 83

Task: # input compound: Cc1cc(OC(=O)COc2ccc(Cl)cc2Cl)n(C)n1 ; wanted: its pest or weed control at 560 g/ha
Result: 83

Task: # input compound: Cc1ccc(S(=O)(=O)NC(=O)COc2ccc(Cl)cc2Cl)cc1 ; wanted: its pest or weed control at 560 g/ha
Result: 75

Task: # input compound: N/C(=N\OC(=O)COc1ccc(Cl)cc1Cl)c1ccco1 ; wanted: its pest or weed control at 560 g/ha
Result: 85

Task: # input compound: CC(=O)/C(C)=N/OC(=O)COc1ccc(Cl)cc1Cl ; wanted: its pest or weed control at 560 g/ha
Result: 90

Task: # input compound: CCO/C(CC)=N\OC(=O)COc1ccc(Cl)cc1Cl ; wanted: its pest or weed control at 560 g/ha
Result: 84

Task: # input compound: CCOC(=O)C(=NOC(=O)COc1ccc(Cl)cc1Cl)C(=O)OCC ; wanted: its pest or weed control at 560 g/ha
Result: 83

Task: # input compound: CS/C(C)=N\OC(=O)COc1ccc(Cl)cc1Cl ; wanted: its pest or weed control at 560 g/ha
Result: 83

Task: # input compound: O=C(COc1ccc(Cl)cc1Cl)ON(Cc1ccccc1)Cc1ccccc1 ; wanted: its pest or weed control at 560 g/ha
Result: 50

Task: # input compound: O=C(Cc1ccccc1)NOC(=O)COc1ccc(Cl)cc1Cl ; wanted: its pest or weed control at 560 g/ha
Result: 97

Task: # input compound: O=C(COc1ccc(Cl)cc1Cl)O/N=C/c1ccc(/C=N/OC(=O)COc2ccc(Cl)cc2Cl)cc1 ; wanted: its pest or weed control at 560 g/ha
Result: 80

Task: # input compound: O=C(COc1ccc(Cl)cc1Cl)NNC(=O)c1ccccc1 ; wanted: its pest or weed control at 560 g/ha
Result: 88

Task: # input compound: O=C(COc1ccc(Cl)cc1Cl)ON1C(=O)c2ccccc2C1=O ; wanted: its pest or weed control at 560 g/ha
Result: 88

Task: # input compound: C/C(C/C(C)=N/OC(=O)COc1ccc(Cl)cc1Cl)=N\OC(=O)COc1ccc(Cl)cc1Cl ; wanted: its pest or weed control at 560 g/ha
Result: 88

Task: # input compound: CN(NC(=O)COc1ccc(Cl)cc1Cl)C(=O)c1ccccc1 ; wanted: its pest or weed control at 560 g/ha
Result: 88

Task: # input compound: O=C(COc1ccc(Cl)cc1Cl)NOCc1ccccc1 ; wanted: its pest or weed control at 560 g/ha
Result: 85
